# measurement.target: PI3K-α kinase (p110α/p85α) (Homo sapiens)
# Construct: purchased Invitrogen PV4788
# Sequence (P42336 whole entry): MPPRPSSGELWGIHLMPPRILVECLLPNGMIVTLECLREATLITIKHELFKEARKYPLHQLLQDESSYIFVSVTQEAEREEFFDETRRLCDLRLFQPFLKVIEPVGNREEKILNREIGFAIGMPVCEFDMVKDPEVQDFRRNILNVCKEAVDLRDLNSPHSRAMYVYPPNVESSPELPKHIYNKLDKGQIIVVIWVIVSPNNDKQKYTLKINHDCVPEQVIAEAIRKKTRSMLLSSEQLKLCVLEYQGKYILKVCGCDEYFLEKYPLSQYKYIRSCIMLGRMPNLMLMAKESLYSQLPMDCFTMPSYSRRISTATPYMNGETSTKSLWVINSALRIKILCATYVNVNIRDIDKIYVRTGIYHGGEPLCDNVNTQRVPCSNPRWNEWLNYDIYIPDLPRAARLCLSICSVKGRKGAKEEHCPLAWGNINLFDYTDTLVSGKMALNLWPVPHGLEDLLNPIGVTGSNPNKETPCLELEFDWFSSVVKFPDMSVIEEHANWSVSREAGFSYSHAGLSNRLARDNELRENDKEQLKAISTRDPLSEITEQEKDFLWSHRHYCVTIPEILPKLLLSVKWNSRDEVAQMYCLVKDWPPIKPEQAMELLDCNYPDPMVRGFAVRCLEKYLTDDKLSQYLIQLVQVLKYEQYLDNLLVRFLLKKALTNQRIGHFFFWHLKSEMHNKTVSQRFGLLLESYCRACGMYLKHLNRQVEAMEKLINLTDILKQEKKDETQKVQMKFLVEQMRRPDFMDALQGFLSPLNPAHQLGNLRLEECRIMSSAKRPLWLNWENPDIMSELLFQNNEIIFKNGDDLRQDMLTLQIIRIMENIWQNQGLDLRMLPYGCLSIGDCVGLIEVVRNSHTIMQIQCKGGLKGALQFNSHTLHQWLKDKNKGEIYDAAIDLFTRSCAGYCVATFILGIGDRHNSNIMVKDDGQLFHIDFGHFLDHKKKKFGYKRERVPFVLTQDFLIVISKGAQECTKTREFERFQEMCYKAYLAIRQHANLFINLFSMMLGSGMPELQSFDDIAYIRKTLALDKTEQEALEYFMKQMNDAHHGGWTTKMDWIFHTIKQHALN
# Sequence (P27986 whole entry partner): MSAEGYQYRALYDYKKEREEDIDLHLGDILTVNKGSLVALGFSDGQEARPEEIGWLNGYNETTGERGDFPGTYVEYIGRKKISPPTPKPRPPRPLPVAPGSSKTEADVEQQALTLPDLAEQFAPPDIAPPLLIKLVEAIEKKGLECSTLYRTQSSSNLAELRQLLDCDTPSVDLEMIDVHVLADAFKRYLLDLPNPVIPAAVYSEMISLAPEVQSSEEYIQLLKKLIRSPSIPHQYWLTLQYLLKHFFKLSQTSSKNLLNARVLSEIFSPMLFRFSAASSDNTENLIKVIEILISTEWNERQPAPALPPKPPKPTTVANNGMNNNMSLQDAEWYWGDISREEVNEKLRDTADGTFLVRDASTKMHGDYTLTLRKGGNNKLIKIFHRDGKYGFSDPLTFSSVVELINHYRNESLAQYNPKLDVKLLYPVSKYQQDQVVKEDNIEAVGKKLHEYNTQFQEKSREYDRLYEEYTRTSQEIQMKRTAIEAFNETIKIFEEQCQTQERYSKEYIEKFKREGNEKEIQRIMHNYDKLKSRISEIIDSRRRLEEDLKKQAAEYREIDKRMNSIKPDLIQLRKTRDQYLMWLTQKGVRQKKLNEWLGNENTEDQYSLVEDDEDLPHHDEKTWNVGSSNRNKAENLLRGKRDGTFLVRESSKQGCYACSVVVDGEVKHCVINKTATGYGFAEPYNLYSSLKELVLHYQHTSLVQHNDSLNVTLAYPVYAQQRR
# test.method.notes: Determination of PI3K kinase activity (ADP Transcreener, fluorescence polarization)
# Assay type: biochemical
# conditions: Table 1; ATP 10 μM; read-out: PI3K-α/nM (IC50 of inhibitory activity against PI3K kinase)
quantity.kind: IC50

In the examples that follow, each entry is paired with its recorded IC50.
{"columns": ["structure.smiles", "IC50"],
 "data": [
  ["CC(C)S(=O)(=O)C1(c2cc(-c3cnc(N)cc3F)nc(N3CCOCC3)n2)CC1", "26 nM"],
  ["C[C@H]1COCCN1c1nc(-c2cnc(N)nc2C(F)(F)F)cc(C2(S(C)(=O)=O)CCC2)n1", "12 nM"],
  ["C[C@H]1COCCN1c1nc(-c2cnc(N)cc2C(F)(F)F)cc(C(C)(C)S(C)(=O)=O)n1", "6 nM"],
  ["Nc1cc(Cl)c(-c2cc(C3(S(=O)(=O)C4CC4)CC3)nc(N3CCOCC3)n2)cn1", "14 nM"],
  ["COC(C)(C)c1cc(-c2cnc(N)cc2Cl)nc(N2CCOCC2)n1", "53 nM"]
]}

Please look up its IC50: CCS(=O)(=O)C1(c2cc(-c3cnc(N)cc3C(F)(F)F)nc(N3CCOCC3)n2)CCC1 17 nM

Please look up its IC50: C[C@H]1COCCN1c1nc(-c2cnc(N)cc2C(F)(F)F)cc(C2(S(C)(=O)=O)CC2)n1 16 nM

Please look up its IC50: Nc1cc(Cl)c(-c2cc(C3(S(=O)(=O)c4ccccc4F)CC3)nc(N3CCOCC3)n2)cn1 9 nM

Please look up its IC50: CCS(=O)(=O)C1(c2cc(-c3cnc(N)cc3C(F)(F)F)nc(N3CCOC[C@@H]3C)n2)CCC1 16 nM
